# Lookup of reported MIC keyed by entry
Tested on: Enterobacter cloacae
Experiment: Antimicrobial activity against Enterobacter cloacae isolate 781 containing PFGE genetic clone B expressing qnrB2 and beta-lactamase KPC-2 and SHV-12 gene by Etest
Format: functional

# Molecule, MIC
measured = [
    ("CCn1cc(C(=O)O)c(=O)c2ccc(C)nc21", "16 µg/mL"),
    ("NCC[C@H](O)C(=O)N[C@@H]1C[C@H](N)[C@@H](O[C@H]2O[C@H](CN)[C@@H](O)[C@H](O)[C@H]2O)[C@H](O)[C@H]1O[C@H]1O[C@H](CO)[C@@H](O)[C@H](N)[C@H]1O", "≤ 2 µg/mL"),
    ("C[C@@H](O)[C@H]1C(=O)N2C(C(=O)O)=C(SCCNC=N)C[C@H]12 [IMIPENEM ANHYDROUS]", "> 32 µg/mL"),
    ("CC(C)(O/N=C(\\C(=O)N[C@@H]1C(=O)N2C(C(=O)[O-])=C(C[n+]3ccccc3)CS[C@H]12)c1csc(N)n1)C(=O)O", "≥ 64 µg/mL"),
    ("CCN1CCN(C(=O)N[C@@H](C(=O)N[C@@H]2C(=O)N3[C@@H]2SC(C)(C)[C@@H]3C(=O)O)c2ccccc2)C(=O)C1=O", "≥ 128 µg/mL"),
    ("C[C@@H](O)[C@H]1C(=O)N2C(C(=O)O)=C(S[C@@H]3CN[C@H](C(=O)Nc4cccc(C(=O)O)c4)C3)[C@H](C)[C@H]12", "> 32 µg/mL"),
    ("C[C@H]1COc2c(N3CCN(C)CC3)c(F)cc3c(=O)c(C(=O)O)cn1c23.C[C@H]1COc2c(N3CCN(C)CC3)c(F)cc3c(=O)c(C(=O)O)cn1c23.O", "0.5 µg/mL"),
    ("C[C@@H](O)[C@H]1C(=O)N2C(C(=O)O)=C(S[C@@H]3CN[C@H](C(=O)N(C)C)C3)[C@H](C)[C@H]12", "> 32 µg/mL"),
]
